B1: Osa-1-4 twister ribozyme (parent)
chain: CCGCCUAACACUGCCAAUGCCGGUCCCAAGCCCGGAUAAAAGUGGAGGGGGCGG

variants of: B1; assay: self-cleavage, relative activity (ratio to wild type); higher = more cleavage; co-transcriptional
assayMetric: self-cleavage
Write no unit; give the number alone.

The cases that follow already have their self-cleavage on record.
variantIdentifier: A28U C32U
self-cleavage: 0.1

variantIdentifier: C15U G23U
self-cleavage: 0.03

variantIdentifier: C27A G23C
self-cleavage: 0.03

variantIdentifier: A29G U12C
self-cleavage: 0.08

variantIdentifier: A46U G51U
self-cleavage: 0.06

Kindly consider the entry below.
Look up self-cleavage: C31U G45C
0.04
